Entry source: patent US8211429

# MEASURED_TARGET: T1, murine NRP1 (mouse, UniProt P97333)
# T1 chain: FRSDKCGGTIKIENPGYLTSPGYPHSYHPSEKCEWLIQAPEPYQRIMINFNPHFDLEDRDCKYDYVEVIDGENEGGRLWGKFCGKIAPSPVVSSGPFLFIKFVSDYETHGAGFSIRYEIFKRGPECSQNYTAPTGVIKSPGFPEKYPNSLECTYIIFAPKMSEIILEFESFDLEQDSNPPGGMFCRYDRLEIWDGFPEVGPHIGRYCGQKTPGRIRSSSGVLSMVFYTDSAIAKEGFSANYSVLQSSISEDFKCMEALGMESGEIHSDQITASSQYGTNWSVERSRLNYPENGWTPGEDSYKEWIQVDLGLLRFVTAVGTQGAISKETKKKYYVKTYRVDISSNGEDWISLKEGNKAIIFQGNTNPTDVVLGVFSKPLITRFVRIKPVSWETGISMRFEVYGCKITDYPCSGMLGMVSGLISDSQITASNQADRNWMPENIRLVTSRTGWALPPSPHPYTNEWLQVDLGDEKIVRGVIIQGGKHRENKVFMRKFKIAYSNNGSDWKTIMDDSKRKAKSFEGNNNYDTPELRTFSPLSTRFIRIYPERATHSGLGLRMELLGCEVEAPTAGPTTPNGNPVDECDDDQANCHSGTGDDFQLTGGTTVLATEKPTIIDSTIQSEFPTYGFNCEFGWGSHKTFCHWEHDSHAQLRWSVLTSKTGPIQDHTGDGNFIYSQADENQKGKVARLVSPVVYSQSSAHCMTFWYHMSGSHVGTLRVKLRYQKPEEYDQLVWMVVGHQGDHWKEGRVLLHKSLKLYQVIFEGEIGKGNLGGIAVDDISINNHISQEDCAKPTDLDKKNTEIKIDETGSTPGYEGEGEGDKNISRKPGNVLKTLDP
# PROCEDURE_SUMMARY: competition phage ELISA
Record form. Attribute: IC50. Fill in for each entry.
Give bare numbers, in nM.

Recall and state the measured IC50 for YW107.4.12 (antibody, V domains shown) VH: EVQLVESGGGLVQPGGSLRLSCAASGFTFSSYAMSWVRQAPGKGLEWVSQISPAGGYTNYADSVKGRFTISADTSKNTAYLQMNSLRAEDTAVYYCARELPYYRMSKVMDVWGQGTLVTVSS VL: DIQMTQSPSSLSASVGDRVTITCRASQYTHSYLAWYQQKPGKAPKLLIYGASSRASGVPSRFSGSGSGTDFTLTISSLQPEDFATYYCQQYYSSPITFGQGTKVEIKR . 3.4

I need IC50 for every entry listed below, if you could help.
1. YW107.4.76b (antibody, V domains shown) VH: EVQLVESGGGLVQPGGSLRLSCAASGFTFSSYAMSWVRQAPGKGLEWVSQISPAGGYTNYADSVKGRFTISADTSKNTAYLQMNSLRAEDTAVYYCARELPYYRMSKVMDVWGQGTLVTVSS VL: DIQMTQSPSSLSASVGDRVTITCRASQWVHSYLAWYQQKPGKAPKLLIYGASSRASGVPSRFSGSGSGTDFTLTISSLQPEDFATYYCQQYYGTPITFGQGTKVEIKR
2. YW107.4.51 (antibody, V domains shown) VH: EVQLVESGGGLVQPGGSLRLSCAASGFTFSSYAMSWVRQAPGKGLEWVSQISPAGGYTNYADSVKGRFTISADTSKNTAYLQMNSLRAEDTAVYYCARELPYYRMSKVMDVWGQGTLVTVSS VL: DIQMTQSPSSLSASVGDRVTITCRASQRISSYLAWYQQKPGKAPKLLIYGASRRESGVPSRFSGSGSGTDFTLTISSLQPEDFATYYCQQYKLSPLTFGQGTKVEIKR

1: 3.9; 2: 12
